- Test system: MS2 coat protein
- TEST_DESCRIPTION: apparent KD of MS2 coat protein, switch OFF state (with FMN for OFF switches, without FMN for ON switches); designed switch direction (-1 OFF switch, 1 ON switch): 1; higher = weaker reporter binding
- TEST_CONTEXT: FMN input: 0 or 200 uM; Eterna round: R93 (includes R88 designs)
Entries annotated with measured apparent KD of MS2 coat protein

RESIDUE_SEQUENCE: AAAUAACAUGAGGAUCACCCAUGUCAAAUAAAUCGAGGAUAUGGGCCCGAGUUCCGGGAGCCAGAAGGCGAAAAGA [Ceusrete]
apparent KD of MS2 coat protein: 51.7 nM
//
RESIDUE_SEQUENCE: GAAAAACAUGAGGAUCACCCAUGUGAGAAUAUGGGAGGAUAUUCAAAGACGAGAGUCAAAGAAGAAGGCCUAAAAG [Mat - Same State 1 - Eli mod - 38]
apparent KD of MS2 coat protein: 161 nM
//
RESIDUE_SEQUENCE: AGAAAGAAAAGAGAGGAUAUCUAAAAGAAAACAUGAGGAUCACCCAUGUAAAAGAAAAGAAAAUGGGAGAAGGCUCAUGAGAAAG [JL Skelter Mod 7 In the Red]
apparent KD of MS2 coat protein: 59.7 nM
//
RESIDUE_SEQUENCE: AAAUAACAUGAGGAUCACCCAUGUCAAAUAAAUCGAGGAUAUGGGCCCGGGUUCCGGAAGCCAGAAGGCGAAAAGA [Diareslera]
apparent KD of MS2 coat protein: 55.1 nM
//
RESIDUE_SEQUENCE: AAAGACGUGGUGUAGGAUAUACUAAUAGUCACAUGAGGAUCACCCAUGUUCAUAUAUAUGAACGAGUAGAAGGACGACGAAAAAA [SameState2 Malc#2]
apparent KD of MS2 coat protein: 95.8 nM
//
RESIDUE_SEQUENCE: AAAAAACAUGAGGAUCACCCAUGUCCUCGGACGUGAGGAUAUGUACAGACUUCGGUCUGUACAGAAGGCACGUAAA [SS1 - 1042]
apparent KD of MS2 coat protein: 402 nM

Numbers sourced from the supplement of paper PMC9170038.
